Test system: LOX IMVI
Test Method Notes: Anticancer activity against human LOX IMVI cells assessed as cell growth inhibition measured after 48 hrs by SRB assay
Assay type: functional

{"Line Notation": "COC(=O)C[C@@H]1NC(=O)c2cc(OC)c(NC(=O)c3cc(OC)c(OC)c(OC)c3)cc2NC1=O", "Comparative Sign": ">", "GI50, nM": 50000}
{"Line Notation": "COc1cc(C(=O)Nc2cc3c(cc2Oc2cc(C)cc(C)c2)C(=O)N[C@@H](Cc2ncnn2C)C(=O)N3)cc(OC)c1OC", "Comparative Sign": "=", "GI50, nM": 70}
{"Line Notation": "COC(=O)CC[C@@H]1NC(=O)c2cc(Oc3cc(C)cc(C)c3)c(NC(=O)c3cc(OC)c(OC)c(OC)c3)cc2NC1=O", "Comparative Sign": "=", "GI50, nM": 1920}
{"Line Notation": "COc1cc(C(=O)Nc2cc3c(cc2Oc2cc(C)cc(C)c2)C(=O)N[C@@H](CC(=O)O)C(=O)N3)cc(OC)c1OC", "Comparative Sign": ">", "GI50, nM": 50000}
{"Line Notation": "COC(=O)C[C@@H]1NC(=O)c2cc(Oc3cc(Cl)cc(Cl)c3)c(NC(=O)c3cc(OC)c(OC)c(OC)c3)cc2NC1=O", "Comparative Sign": ">", "GI50, nM": 50000}
{"Line Notation": "CCCCOC(=O)C[C@@H]1NC(=O)c2cc(Oc3cc(C)cc(C)c3)c(NC(=O)c3cc(OC)c(OC)c(OC)c3)cc2NC1=O", "Comparative Sign": "=", "GI50, nM": 3980}
{"Line Notation": "CCN(CC)C(=O)C[C@@H]1NC(=O)c2cc(Oc3cc(C)c(F)c(C)c3)c(NC(=O)c3cc(OC)c(OC)c(OC)c3Cl)cc2NC1=O", "Comparative Sign": "=", "GI50, nM": 8}

Source listed as ChEMBL document CHEMBL5214978.
